Entry source: ChEMBL document CHEMBL1133471

Quick list: IC50 per entry.
system: P388; assay: Concentration required to inhibit 50% of cell growth on murine P388 D1 cells.; assay type: functional, cell-based; conditions: Mus musculus
The reply should contain only the number, in µM.

CN(C)CC1CCC/C(=C\c2ccc(OC(=O)/C=C/c3ccccc3)cc2)C1=O.Cl (stereo not given) :: 4.02
O=C1CCCC/C1=C\c1ccc(OC(=O)c2ccc(Cl)cc2)cc1 :: 25.5
CN(C)CC1CCC/C(=C\c2ccc(OC(=O)/C=C/c3ccc(Br)cc3)cc2)C1=O.Cl (stereo not given) :: 4.03

Here is another molecule to look at.
Q) Sample CN(C)CC1CCC/C(=C\c2ccc(OC(=O)/C=C/c3ccc(Cl)c(Cl)c3)cc2)C1=O.Cl (stereo not given) — what was its IC50?
A) 4.18

* * *

organism: Homo sapiens; assay: Inhibitory concentration was evaluated on human Jurkat T-cells after their exposure for 48 hours; format: functional, cell-based
Starred links: 1 amine or outer side, 2 acyl side, 3 side chain; linkers in the order of their positions; H or OH if unused. Positions of bridges follow the written chain, without caps; N, C: chain ends. Non-standard residues stand in square brackets, D forms with d. Residues, ends and D or L forms follow the SMILES beside them. Chains are numbered I, II in the order given. Actinocin(1to9) = Cc1c2oc3c(C)ccc(C(=O)[*:2])c3nc-2c(C(=O)[*:1])c(N)c1=O; NMeV = CN[C@H](C(=O)O)C(C)C; Sar = CNCC(=O)O
Quick list: IC50 per entry.
The reply should contain only the number, in nM.

CN(C)CC1CCC/C(=C\c2ccc(OC(=O)/C=C/c3ccc(Br)cc3)cc2)C1=O.Cl (configuration not stated) :: 4470

Q) Sample O=C(/C=C/c1ccc(Br)cc1)Oc1ccc(/C=C2\CCCCC2=O)cc1 — what was its IC50?
A) 19800

Q) Sample Cc1c2oc3c(C)ccc(C(=O)N[C@@H]4C(=O)N[C@H](C(C)C)C(=O)N5CCC[C@H]5C(=O)N(C)CC(=O)N(C)[C@@H](C(C)C)C(=O)O[C@@H]4C)c3nc-2c(C(=O)N[C@@H]2C(=O)N[C@H](C(C)C)C(=O)N3CCC[C@H]3C(=O)N(C)CC(=O)N(C)[C@@H](C(C)C)C(=O)O[C@@H]2C)c(N)c1=O [DACTINOMYCIN] (I: T[dV]P[Sar][NMeV] / II: T[dV]P[Sar][NMeV]; ester I:1-I:C, II:1-II:C; linker I:N-II:N via Actinocin(1to9)) — what was its IC50?
A) 4.5

Q) Sample CN(C)CC1CCC/C(=C\c2ccc(OC(=O)c3ccc(Cl)cc3)cc2)C1=O.Cl (configuration not stated) — what was its IC50?
A) 3500

Q) Sample N[C@@H](Cc1ccc(N(CCCl)CCCl)cc1)C(=O)O — what was its IC50?
A) 2200

Q) Sample C[C@@H]1C[C@@H]([C@H](O)CC2CC(=O)NC(=O)C2)C(=O)[C@@H](C)C1 [CYCLOHEXIMIDE] — what was its IC50?
A) 930

Q) Sample CN(C)CC1CCC/C(=C\c2ccc(OC(=O)/C=C/c3ccc(Cl)cc3)cc2)C1=O.Cl (configuration not stated) — what was its IC50?
A) 2530

* * *

tested on: leukaemia cell line; assay: Mean graph mid point was measured on leukemic cells.; assay type: functional, Homo sapiens
Property Measured: MG MID (µM)
The reply should contain only the number, in µM.

COc1ccc(/C=C/C(=O)Oc2ccc(/C=C3\CCCCC3=O)cc2)cc1 :: 9.36

Q) Sample N[C@@H](Cc1ccc(N(CCCl)CCCl)cc1)C(=O)O — what was its MG MID?
A) 4.65

* * *

species on record: Homo sapiens; test: Inhibitory concentration was evaluated on human Jurkat T-cells after their exposure for 48 hours; type: functional
Starred links: 1 amine or outer side, 2 acyl side, 3 side chain; linkers in the order of their positions; H or OH if unused. Positions of bridges follow the written chain, without caps; N, C: chain ends. Non-standard residues stand in square brackets, D forms with d. Residues, ends and D or L forms follow the SMILES beside them. Chains are numbered I, II in the order given. Actinocin(1to9) = Cc1c2oc3c(C)ccc(C(=O)[*:2])c3nc-2c(C(=O)[*:1])c(N)c1=O; NMeV = CN[C@H](C(=O)O)C(C)C; Sar = CNCC(=O)O
Property Measured: IC80 (nM)
The reply should contain only the number, in nM.

Q) Sample Cc1c2oc3c(C)ccc(C(=O)N[C@@H]4C(=O)N[C@H](C(C)C)C(=O)N5CCC[C@H]5C(=O)N(C)CC(=O)N(C)[C@@H](C(C)C)C(=O)O[C@@H]4C)c3nc-2c(C(=O)N[C@@H]2C(=O)N[C@H](C(C)C)C(=O)N3CCC[C@H]3C(=O)N(C)CC(=O)N(C)[C@@H](C(C)C)C(=O)O[C@@H]2C)c(N)c1=O [DACTINOMYCIN] (I: T[dV]P[Sar][NMeV] / II: T[dV]P[Sar][NMeV]; ester I:1-I:C, II:1-II:C; linker I:N-II:N via Actinocin(1to9)) — what was its IC80?
A) 7.2

* * *

Quick list: IC80 per entry.
species: Homo sapiens; test: Inhibitory concentration was evaluated on human Jurkat T-cells after their exposure for 48 hours; assay type: functional
The reply should contain only the number, in µM.

// solved cases for IC80 follow
CN(C)CC1CCC/C(=C\c2ccc(OC(=O)c3ccc(Cl)cc3)cc2)C1=O.Cl (centres undefined) :: 5.6
CN(C)CC1CCC/C(=C\c2ccc(OC(=O)/C=C/c3ccc(Cl)cc3)cc2)C1=O.Cl (centres undefined) :: 4.04
CN(C)CC1CCC/C(=C\c2ccc(OC(=O)/C=C/c3ccc(Br)cc3)cc2)C1=O.Cl (centres undefined) :: 7.63

Q) Sample O=C(/C=C/c1ccc(Br)cc1)Oc1ccc(/C=C2\CCCCC2=O)cc1 — what was its IC80?
A) 31.7

* * *

system: leukaemia cell line; experiment: Mean graph mid point was measured on leukemic cells.; assay type: functional, Homo sapiens
Binary call on MG MID: 1 from 1 µM upward, -1 beneath that.

Some solved entries appear below for comparison.
O=C(/C=C/c1ccccc1)Oc1ccc(/C=C2\CCCCC2=O)cc1 :: 1
C=C1C(=O)O[C@@H]2C[C@@H](C)[C@@H]3C=CC(=O)[C@@]3(C)[C@@H](O)[C@H]12 :: -1
CN(C)CC1CCC/C(=C\c2ccc(OC(=O)/C=C/c3ccccc3)cc2)C1=O.Cl (stereo not drawn) :: 1
O=C(/C=C/c1ccc(Cl)cc1)Oc1ccc(/C=C2\CCCCC2=O)cc1 :: 1

Q) Kindly determine if MG MID recorded for CN(C)CC1CCC/C(=C\c2ccc(OC(=O)/C=C/c3ccc(Cl)cc3)cc2)C1=O.Cl (stereo not drawn) is above or exactly 1 µM.
A) -1

Q) Kindly determine if MG MID recorded for O=C(/C=C/c1ccc(Cl)c(Cl)c1)Oc1ccc(/C=C2\CCCCC2=O)cc1 is above or exactly 1 µM.
A) 1

Q) Kindly determine if MG MID recorded for CN(C)CC1CCC/C(=C\c2ccc(OC(=O)c3ccc(Cl)cc3)cc2)C1=O.Cl (stereo not drawn) is above or exactly 1 µM.
A) -1

Q) Kindly determine if MG MID recorded for O=c1[nH]cc(F)c(=O)[nH]1 is above or exactly 1 µM.
A) 1
